Experiment: soluble on expression in E. coli; label from the status in PepcDB or PDB records
measured endpoint: soluble on expression in E. coli

Some solved entries appear below for comparison.
Qu. Using known records, supply soluble on expression in E. coli for MITRDFFLFLSKSGFLNKMARNWGSRVAAGKIIGGNDFNSSIPTIRQLNSQGLSVTVDHLGEFVNSAEVARERTEECIQTIATIADQELNSHVSLKMTSLGLDIDMDLVYENMTKILQTAEKHKIMVTIDMEDEVRCQKTLDIFKDFRKKYEHVSTVLQAYLYRTEKDIDDLDSLNPFLRLVKGAYKESEKVAFPEKSDVDENYKKIIRKQLLNGHYTAIATHDDKMIDFTKQLAKEHGIANDKFEFQMLYGMRSQTQLSLVKEGYNMRVYLPYGEDWYGYFMRRLAERPSNIAFAFKGMTKKLEHHHHHH
Ans. soluble

Qu. Using known records, supply soluble on expression in E. coli for SSLRLPSAAELSGQWVLSGAEQHCDIRLNTDVLDGTTWKLAGDTACLQKLLPEAPVGWRPTPDGLTLTQADGSAVAFFSRNRDRYEHKLVDGSVRTLKKKA
Ans. soluble

Qu. Using known records, supply soluble on expression in E. coli for MSLSQASSTDTPFVIAGRTYGSRLLVGTGKYKDLDETRRAIEASGAEIVTVAVRRTNIGQNPDEPNLLDVIPPDRYTILPNTAGCYDAVEAVRTCRLARELLDGHNLVKLEVLADQKTLFPNVVETLKAAEQLVKDGFDVMVYTSDDPIIARQLAEIGCIAVMPLAGLIGSGLGICNPYNLRIILEEAKVPVLVDAGVGTASDAAIAMELGCEAVLMNTAIAHAKDPVMMAEAMKHAIVAGRLAYLAGRMPRKLYASASSPLDGLIDEGGSHHHHHH
Ans. soluble

Qu. Using known records, supply soluble on expression in E. coli for VFALSNNLNRVNACMDGFLARIRSHVDAHAPELRSLFDTMAAEARFARDWLSEDLARLPVGAALLEVGGGVLLLSCQLAAEGFDITAIEPTGEGFGKFRQLGDIVLELAAARPTIAPCKAEDFISEKRFDFAFSLNVMEHIDLPDEAVRRVSEVLKPGASYHFLCPNYVFPYEPHFNIPTFFTKELTCRVMRHRIEGNTGMDDPKGVWRSLNWITVPKVKRFAAKDATLTLRFHRAMLVWMLERALTDKEFAGRRAQWMVAAIRSAVKLRVHHLAGYVPATLQPIMDVRLTKR
Ans. not soluble

Qu. Using known records, supply soluble on expression in E. coli for MGSDKIHHHHHHMSDSKWKYNIIYNMEIEVLTGLHIGGSNEELKIGGTDSPVITTKYLINNVEPCDLPYIPGSSIKGKIRSLLENVDYKGKNGDDIVSKMFGYYPNAGEGIKRLTRLIIRDAFLDDGHIKSAEDARNVIEIKSENKIDPIESKATPRFIERVRRGTKFKGKIILSIYEGDNEEEMIKCLKTGISLLEDSYLGGNGTRGYGSVKITLGEPIKKGIDKYEENIKDNTSNGSEN
Ans. not soluble

***
Qu. Using known records, supply soluble on expression in E. coli for MGSDKIHHHHHHMFFYNIHQPMKTLIENLTSDLLPNQIFQTGFSFLIILKGNSLLKLDSNVLIFIMSGTMKVSSAQQELATVRERHIFFWDKEDDYTCEMLSDSQVILFAFGDLIVHDLLTFRPFGAISDSSVSKDVGLKFAEPLNSFLQLLAQYMEMNLYDLSLYIAKQRELFYILNSVYNEQELAILFSSLTEQSSRFKEQILENYLSAKNVGELASLLGYGVTNFRAKFKEQFGVSVYRWLLNRKSQHIIYRITVYGDEFSQIIDDFGFSSPSHFNKFCRSQYGLTPCELRKKLKTNNNS
Ans. not soluble

Qu. Using known records, supply soluble on expression in E. coli for GSEEHCAPNKEPVKYGELVVLGYNGALPNGDRGRRKSRFALYKRPKANGVKPSTVHVISTPQASKAISCKGQHSISYTLSRNQTVVVEYTHDKDTDMFQVGRSTESPIDFVVTDTISGSQNTDEAQITQSTISRFACRIVCDRNEPYTARIFAAGFDSSKNIFLGEKAAKWKNPDGHMDGLTTNGVLVMHPRGGFTEESQPGVWREISVCGDVYTLRETRSAQQRGKLVESETNVLQDGSLIDLCGATLLWRTADGLFHTPTQKHIEALRQEINAARPQCPVGLN
Ans. soluble

Qu. Using known records, supply soluble on expression in E. coli for MSLTTELVDWTHEQKCRKAVASLEKNGFTAVYCGTGQEALEYIVAEAAEAESVGFGGSMSVDDLKVIERIREMGKELLIHGAPGLSLEERVTIMRRQLTCDLFLAGTNALTLSGWLVNIDATGNRVGSMFFGPRKVIVVAGRNKIVDGGVQEAIDRIKEWASPPNARRLNYKTPCGTTGFCSDCNSPDRICRITTVIDRKPRLTDLRVLVVNEEMGFLEHHHHHH
Ans. soluble

Qu. Using known records, supply soluble on expression in E. coli for GPGSMPYIRMAYEKAISDVPADTLDKVKAVLSALEEVLSVRTFLVGERLTIADVAVAFSIHWVYRCNRKHGQTLYKEYRAVYRHYNTVMRHPKIHAMMRKEGAAIGPLRS
Ans. not soluble

Qu. Using known records, supply soluble on expression in E. coli for MKTETPSVKIVAITADEAGQRIDNFLRTQLKGVPKSMIYRILRKGEVRVNKKRIKPEYKLEAGDEVRIPPVRVAEREEEAVSPHLQKVAALADVILYEDDHILVLNKPSGTAVHGGSGLSFGVIEGLRALRPEARFLELVHRLDRDTSGVLLVAKKRSALRSLHEQLREKGMQKDYLALVRGQWQSHVKSVQAPLLKNILQSGERIVRVSQEGKPSETRFKVEERYAFATLVRCSPVTGRTHQIRVHTQYAGHPIAFDDRYGDREFDRQLTEAGTGLNRLFLHAAALKFTHPGTGEVMRIEAPMDEGLKRCLQKLRNAR
Ans. soluble

Qu. Using known records, supply soluble on expression in E. coli for KGTYLSEYANFAAALTEGKILLLADLRGFGETTDPAFYTDAKYWNREYRNAMVSMHIGRPIMGQRVVDILTLLDFCSEHEFLKGHPVKVFANGIYGPVAIHAAYLDERINSVEIKHSVKTWKEYIERPMQWDMYSNVLYGALKYYDLPDLIRLSNCPIRFAD
Ans. not soluble

Qu. Using known records, supply soluble on expression in E. coli for MTEIKYKVITKDAFALPYTIIKAKNQPTKGVIVYIHGGGLMFGKANDLSPQYIDILTEHYDLIQLSYRLLPEVSLDCIIEDVYASFDAIQSQYSNCPIFTFGRSSGAYLSLLIARDRDIDGVIDFYGYSRINTEPFKTTNSYYAKIAQSINETMIAQLTSPTPVVQDQIAQRFLIYVYARGTGKWINMINIADYTDSKYNIAPDELKTLPPVFIAHCNGDYDVPVEESEHIMNHVPHSTFERVNKNEHDFDRRPNDEAITIYRKVVDFLNAITMV
Ans. soluble
